molecular target: TSLP (as used in the human PBMC assay) (UniProt Q969D9 29-159); assay: cell-based or functional assay
*1 amine or outer side, *2 acyl side, *3 side chain or, on linkers, in order; H or OH if unused. Bridges are numbered along the chain shown (N, C = ends). Where no end group is shown, it is not given here. TATA = O=C(CC[*:1])N1CN(C(=O)CC[*:2])CN(C(=O)CC[*:3])C1
Mark True only for CCL17 % Inhibition @ 10 µM, 666 pM TSLP values smaller than 40%; exact matches and larger values are False.

Field: example entries. Status: answers known.
Binder	Label
ACQWLEDCWRGFCSSSDQS (linker 2-8-13 via TATA) [Example 59]	True
CQWLEDCWRGXC (Ac-CQWLEDCWRG[4-ClPhe]C; 3 Cys cyclised with TATA) [Example 14]	True
ACDWHWEYDCWLSCA (linker 2-10-14 via TATA) [Example 199]	True
ACHWLEDCWRGFCHLE (linker 2-8-13 via TATA; not fully specified (C-terminus)) [Example 75]	True
CQWLEDCWRGXC (not fully specified; Ac-CQWLEDCWRG[3-MePhe]C; 3 Cys cyclised with TATA) [Example 74]	False
Ac-CQWLEDCWRGFC (linker 1-7-12 via TATA) [Example 79]	True

Given YATTQVCRDLDPWTCSSWWLCA (linker 7-15-21 via TATA) [Example 171] , is recorded CCL17 % Inhibition @ 10 µM, 666 pM TSLP strictly lower than 40%? True
